Target: IDE (Homo sapiens, UniProt P14735)
Construct: made in house; host or cells: bacteria
Sequence (P14735 whole entry): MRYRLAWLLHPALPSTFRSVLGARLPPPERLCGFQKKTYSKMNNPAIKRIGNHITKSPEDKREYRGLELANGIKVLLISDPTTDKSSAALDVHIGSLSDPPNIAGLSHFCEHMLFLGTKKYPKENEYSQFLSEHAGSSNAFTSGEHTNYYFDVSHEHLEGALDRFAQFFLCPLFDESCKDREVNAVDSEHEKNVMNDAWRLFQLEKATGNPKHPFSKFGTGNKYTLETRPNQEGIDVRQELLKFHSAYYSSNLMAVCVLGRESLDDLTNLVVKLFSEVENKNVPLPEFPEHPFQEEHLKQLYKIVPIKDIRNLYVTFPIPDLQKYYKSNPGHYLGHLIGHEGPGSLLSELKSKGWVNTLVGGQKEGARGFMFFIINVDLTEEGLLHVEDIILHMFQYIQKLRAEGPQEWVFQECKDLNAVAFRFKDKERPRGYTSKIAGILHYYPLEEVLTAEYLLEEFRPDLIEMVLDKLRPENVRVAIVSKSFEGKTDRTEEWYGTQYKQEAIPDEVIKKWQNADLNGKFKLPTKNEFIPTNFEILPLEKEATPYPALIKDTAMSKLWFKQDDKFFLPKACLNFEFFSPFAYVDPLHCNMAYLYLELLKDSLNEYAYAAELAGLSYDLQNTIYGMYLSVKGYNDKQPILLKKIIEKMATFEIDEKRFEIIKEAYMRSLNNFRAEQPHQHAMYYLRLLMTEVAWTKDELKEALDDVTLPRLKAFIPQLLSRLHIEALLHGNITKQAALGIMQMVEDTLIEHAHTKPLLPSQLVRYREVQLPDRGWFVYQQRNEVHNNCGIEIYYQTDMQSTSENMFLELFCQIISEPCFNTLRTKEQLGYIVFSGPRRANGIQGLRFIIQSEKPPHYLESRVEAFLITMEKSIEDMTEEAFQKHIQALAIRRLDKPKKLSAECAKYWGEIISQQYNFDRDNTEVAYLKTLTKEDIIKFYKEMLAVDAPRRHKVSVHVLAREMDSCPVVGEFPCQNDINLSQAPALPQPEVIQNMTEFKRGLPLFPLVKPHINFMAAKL
Experiment: biochemical
Conditions: from initial test at 10 uM using insulin (100 nM); read-out: IC50 (summary of results, listed in Table 1)
Ends that are not written are not given here.

substance | IC50
LNFPMPSRPHSS-NH2 [P12-2A] | > 10 µM
Ac-FPMPSRPH-NH2 [P12-2D] | > 10 µM
WSPISGKF-NH2 [P12-4B] | > 10 µM
Ac-MPSRPHSS [P12-2C] | > 10 µM
Ac-FRQWWQPS [P12-1C] | > 10 µM
Ac-SGKFFQRF [P12-4C] | > 10 µM
Ac-PISGKFFQ-NH2 [P12-4D] | > 10 µM
LNFPMPSRPHSS [P12-2] | > 10 µM
LNFPMPSR-NH2 [P12-2B] | > 10 µM
QSLPWCYP-NH2 [P12-3B] | > 10 µM
